Subject Of Test: T1, biotinylated native human ApoC3 (human, UniProt P02656 21-99, biotinylated (site not stated))
T1 construct: also called biotinylated human ApoC3
Assay Summary: SPR, IgG1 over biotinylated ApoC3 on SA chip, pH 7.4
Property Name: pKd
// pKd: -log10(molar conc.)

[
  {
    "Binder": "5E5WT human IgG1 (antibody, V domains shown) VH: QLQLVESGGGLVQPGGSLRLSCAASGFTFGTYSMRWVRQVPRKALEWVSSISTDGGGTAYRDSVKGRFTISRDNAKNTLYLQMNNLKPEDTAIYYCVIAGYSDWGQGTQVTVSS VL: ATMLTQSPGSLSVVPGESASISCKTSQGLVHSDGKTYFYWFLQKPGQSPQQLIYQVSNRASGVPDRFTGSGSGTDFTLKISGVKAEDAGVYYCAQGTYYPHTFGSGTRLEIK",
    "pKd": 10.30
  }
]

Now let's try a different one.
stdin: What does the data say about its pKd? Entry: mAb7 (antibody, V domains shown, Produced as full length IgG1 (kappa) in ExpiCHO-S cells; also called humanized anti-ApoC3 antibody mAb7) VH: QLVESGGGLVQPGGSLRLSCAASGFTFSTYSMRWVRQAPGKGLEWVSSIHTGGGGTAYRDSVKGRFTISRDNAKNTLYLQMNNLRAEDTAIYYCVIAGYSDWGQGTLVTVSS VL: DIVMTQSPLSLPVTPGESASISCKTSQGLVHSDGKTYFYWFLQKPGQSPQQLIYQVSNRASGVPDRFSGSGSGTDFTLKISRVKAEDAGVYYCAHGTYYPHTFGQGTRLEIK
stdout: 10.05

// data source = patent US20200239555A1
